molecular target: BRD4 (BDII_E352-M457) (Homo sapiens (Human), UniProt O60885); assay: TR-FRET bromodomain binding assay, BRD4 second bromodomain; conditions: His-tagged BD2, Alexa647-labeled probe 30 nM
// NB: equality with 9 nM counts as Not met; only Ki strictly below is Met

Recorded results for 5 compounds are shown here.
• CCNC(=O)c1cc2c(-c3cc(S(=O)(=O)CC)ccc3Oc3c(C)cccc3CCc3ccccc3)cn(C)c(=O)c2[nH]1 [Example 148] = Met
• Cn1cc(-c2cc(S(C)(=O)=O)ccc2N[C@H]2CC[C@H](NCc3ccc(F)cc3F)CC2)c2cc[nH]c2c1=O [Example 109] = Met
• Cn1cc(-c2cc(S(C)(=O)=O)ccc2Oc2cccc(C(=O)N3CCC(N4CCCC4)CC3)c2)c2cc[nH]c2c1=O [Example 24] = Not met
• CCNC(=O)c1cc2c(-c3ccc(C(=O)N(CCN(C)C)c4ccnc(F)c4)cc3Oc3c(C)cccc3C)cn(C)c(=O)c2[nH]1 [Example 185] = Not met
• CCNC(=O)c1cc2c(-c3cc(S(=O)(=O)CC)ccc3Oc3c(C)cccc3CN3CCOCC3)cn(C)c(=O)c2[nH]1 [Example 146] = Not met

API: the following record is the query input.
Query: Is it true that Ki reported for CCS(=O)(=O)Nc1cc(-c2cn(C)c(=O)c3[nH]ccc23)c(Oc2ccc(F)cc2F)cc1CN1CCCCC1 [Example 3] is less than 9 nM?
Reply: Met

---

Each entry below carries its reported pKi.
target: UniProt O60885; assay: TR-FRET bromodomain binding assay, BRD4 first bromodomain; details: His-tagged BD1, Alexa647-labeled probe 100 nM
Remember the convention: pKi equals -log10 of concentration in molar.

Some compounds with known pKi results, for comparison:
- Cn1cc(-c2cc(S(C)(=O)=O)ccc2NC2CCN(S(=O)(=O)c3cccs3)CC2)c2cc[nH]c2c1=O: 8.10
- Cn1cc(-c2cc(S(C)(=O)=O)ccc2NC2CCN(C(=O)CCN3CCOCC3)CC2)c2cc[nH]c2c1=O: 7.92
- Cn1cc(-c2cc(S(C)(=O)=O)ccc2Oc2cccc(NCc3cccc(F)c3)c2)c2cc[nH]c2c1=O: 8.00
- Cn1cc(-c2cc(S(C)(=O)=O)ccc2Oc2cccc(NS(=O)(=O)c3ccccc3C#N)c2)c2cc[nH]c2c1=O: 8.16
- CN1CCC(N2CCN(Cc3cc4c(-c5cc(S(C)(=O)=O)ccc5Oc5ccc(F)cc5F)cn(C)c(=O)c4[nH]3)CC2)CC1: 8.07

// moving on: another record for pKi
Query: Reported pKi, compound CN(C)CCCOc1ccc(CN2CCC(Nc3ccc(S(C)(=O)=O)cc3-c3cn(C)c(=O)c4[nH]ccc34)CC2)cc1 : ____
Reply: 7.85

---

molecular target: BRD4 (BDI_K57-E168) (Homo sapiens (Human), UniProt O60885); assay: TR-FRET bromodomain binding assay, BRD4 first bromodomain; conditions: His-tagged BD1, Alexa647-labeled probe 100 nM
Readout name: pKi
Remember the convention: pKi equals -log10 of concentration in molar.

• Cn1cc(-c2cc(S(C)(=O)=O)ccc2Oc2cccc(C(=O)NCCCN3CCCC3=O)c2)c2cc[nH]c2c1=O = 7.59

Query: Reported pKi, compound CCNC(=O)c1cc2c(-c3cc(S(=O)(=O)CC)ccc3Oc3c(C)cccc3CN3CCCS3(=O)=O)cn(C)c(=O)c2[nH]1 : ____
Reply: 5.68

Query: Reported pKi, compound Cn1cc(-c2cc(S(C)(=O)=O)ccc2Oc2cccc(NS(=O)(=O)Cc3ccccc3)c2)c2cc[nH]c2c1=O : ____
Reply: 8.29

---

Target: BRD4 (BDII_E352-M457) (Homo sapiens (Human), UniProt O60885)
Experiment: TR-FRET bromodomain binding assay, BRD4 second bromodomain
Conditions: His-tagged BD2, Alexa647-labeled probe 30 nM
Procedure: A time-resolved fluorescence resonance energy transfer (TR-FRET) assay was used to determine the affinities of compounds of the Examples listed in Table 1 for each bromodomain of BRD4. […] Compound dilution series were prepared in DMSO via a 3-fold serial dilution from 2.5 mM to 42 nM. […] After a one-hour incubation at room temperature, TR-FRET ratios were determined using an Envision multilabel plate reader (Ex 340, Em […]). […]
Each entry below carries its reported log10 of Ki.
Record value = log10 of Ki given in nM.

Some molecules with known log10 of Ki results, for comparison:
- CCNC(=O)c1cc2c(-c3ccc(C(=O)N(CCN(C)C)c4ccccn4)cc3Oc3c(C)cccc3C)cn(C)c(=O)c2[nH]1 [Example 181]: 0.96
- Cn1cc(-c2cc(S(C)(=O)=O)ccc2Oc2ccc(F)cc2F)c2cc(CN3CCN(c4ccccn4)CC3)[nH]c2c1=O [Example 132]: 2.11

// moving on: another record for log10 of Ki
Query: Reported log10 of Ki, molecule Cc1cc(-c2ccc(-c3cn(C)c(=O)c4[nH]ccc34)c(OCC3CC3)c2)[nH]n1 [Example 1] : ____
Reply: 1.74

---

Target: BRD4 (BDI_K57-E168) (Homo sapiens (Human), UniProt O60885)
Assay: TR-FRET bromodomain binding assay, BRD4 first bromodomain
Conditions: His-tagged BD1, Alexa647-labeled probe 100 nM
Experimental: A time-resolved fluorescence resonance energy transfer (TR-FRET) assay was used to determine the affinities of compounds of the Examples listed in Table 1 for each bromodomain of BRD4. […] Compound dilution series were prepared in DMSO via a 3-fold serial dilution from 2.5 mM to 42 nM. […] After a one-hour incubation at room temperature, TR-FRET ratios were determined using an Envision multilabel plate reader (Ex 340, Em […]). […]
// NB: equality with 10 nM counts as F; only Ki strictly below is T

Recorded results for 5 compounds are shown here.
* Cn1cc(-c2cc(S(C)(=O)=O)ccc2Oc2cccc(C(=O)N3CCC(C(F)(F)F)CC3)c2)c2cc[nH]c2c1=O | F
* CCNC(=O)c1cc2c(-c3ccc(C(=O)N(CC#N)c4cccc(C(F)(F)F)c4)cc3Oc3c(C)cccc3C)cn(C)c(=O)c2[nH]1 | F
* CN(C)CCNC(=O)c1cccc(Oc2ccc(S(C)(=O)=O)cc2-c2cn(C)c(=O)c3[nH]ccc23)c1 | T
* CC(=O)N1CCN(C(=O)c2cccc(Oc3ccc(S(C)(=O)=O)cc3-c3cn(C)c(=O)c4[nH]ccc34)c2)CC1 | F
* Cc1noc(C2CCCN2Cc2cc3c(-c4cc(S(C)(=O)=O)ccc4Oc4ccc(F)cc4F)cn(C)c(=O)c3[nH]2)n1 (stereo not shown) | F

API: the following record is the query input.
Query: Is it true that Ki reported for CCS(=O)(=O)c1ccc(Oc2ccc(Cl)cc2CCCN2CCOCC2)c(-c2cn(C)c(=O)c3[nH]ccc23)c1 is less than 10 nM?
Reply: T

---

target: BRD4 (BDII_E352-M457) (Homo sapiens (Human), UniProt O60885); test: TR-FRET bromodomain binding assay, BRD4 second bromodomain; settings: His-tagged BD2, Alexa647-labeled probe 30 nM
Readout name: log10 Ki (log10 of the value in µM)
Record value = log10 of Ki given in µM.

- COCCOCC(=O)N1CCC(Nc2ccc(S(C)(=O)=O)cc2-c2cn(C)c(=O)c3[nH]ccc23)CC1 [Example 98]: -1.70

// moving on: another record for log10 Ki
Query: Kindly state the measured log10 Ki obtained for CN1CCC(N2CCN(Cc3cc4c(-c5cc(S(C)(=O)=O)ccc5Oc5ccc(F)cc5F)cn(C)c(=O)c4[nH]3)CC2)CC1 [Example 125] with BRD4 (BDII_E352-M457) (Homo sapiens (Human), UniProt O60885).
Reply: -0.72

---

target: BRD4 (BDII_E352-M457) (Homo sapiens (Human), UniProt O60885); test: TR-FRET bromodomain binding assay, BRD4 second bromodomain; settings: His-tagged BD2, Alexa647-labeled probe 30 nM
pKi: −log10 of the molar value.
Tick Y if pKi is 8 or greater. Tick N if pKi is less than 8.

Recorded results for 3 molecules are shown here.
- CCNC(=O)c1cc2c(-c3ccc(C(=O)N(CC#N)c4cccc(Cl)c4)cc3Oc3c(C)cccc3C)cn(C)c(=O)c2[nH]1: N
- CCS(=O)(=O)Nc1cc(-c2cn(C)c(=O)c3[nH]ccc23)c(Oc2ccc(F)cc2F)cc1C(N)=O: Y
- CN(C)CCCOc1ccc(CN2CCC(Nc3ccc(S(C)(=O)=O)cc3-c3cn(C)c(=O)c4[nH]ccc34)CC2)cc1: N

API: the following record is the query input.
Query: pKi >= 8 for Cc1cccc(S(=O)(=O)Nc2cccc(Oc3ccc(S(C)(=O)=O)cc3-c3cn(C)c(=O)c4[nH]ccc34)c2)c1 ?
Reply: Y
